The values you see were collected from BindingDB's records for doi:10.1021/jacs.1c08060.

Each entry below carries its measured pIC50, system: Replicase polyprotein 1ab (Severe acute respiratory syndrome coronavirus 2).
Give bare numbers, as −log10 of the molar value.

Here is how some compounds turned out for pIC50.
>  <compound>
O=C(NC1CC1)C(c1cccnc1)N(C(=O)CCl)c1ccc(-c2ccccc2)cc1 (configuration not stated)

>  <result_number>
6.66

$$$$
>  <compound>
O=C(NC1CCCCC1)C(c1cccnc1)N(C(=O)CCl)c1ccc(-c2ccccc2)cc1 (configuration not stated)

>  <result_number>
6.48

$$$$
>  <compound>
O=C(NC1CCCC1)C(c1cccnc1)N(C(=O)CCl)c1ccc(-c2ccccc2)cc1 (configuration not stated)

>  <result_number>
6.52

$$$$

Below are some compounds; for each one, tell me its pIC50.
1. C[C@H](NC(=O)C(c1cnccn1)N(C(=O)CCl)c1ccc(-c2ccccc2)cc1)c1ccccc1 (some centres not stated)
2. C[C@H](NC(=O)[C@@H](c1cccnc1)N(C(=O)C(Br)Br)c1ccc(-c2ccccc2)cc1)c1ccc(Br)cc1
3. CCCCC1CCC(OC(=O)N[C@@H](CC(C)C)C(=O)N[C@H](C=O)C[C@@H]2CCNC2=O)CC1 (some centres not stated)
4. C[C@H](NC(=O)[C@@H](c1cnccn1)N(C(=O)CCl)c1ccc(-c2ccccc2)cc1)c1ccccc1

Reply |
1: 6.92; 2: 7.10; 3: 8.00; 4: 7.30

---

# assay_system: Procathepsin L (Homo sapiens, UniProt P07711)
# Sequence (P07711 whole entry): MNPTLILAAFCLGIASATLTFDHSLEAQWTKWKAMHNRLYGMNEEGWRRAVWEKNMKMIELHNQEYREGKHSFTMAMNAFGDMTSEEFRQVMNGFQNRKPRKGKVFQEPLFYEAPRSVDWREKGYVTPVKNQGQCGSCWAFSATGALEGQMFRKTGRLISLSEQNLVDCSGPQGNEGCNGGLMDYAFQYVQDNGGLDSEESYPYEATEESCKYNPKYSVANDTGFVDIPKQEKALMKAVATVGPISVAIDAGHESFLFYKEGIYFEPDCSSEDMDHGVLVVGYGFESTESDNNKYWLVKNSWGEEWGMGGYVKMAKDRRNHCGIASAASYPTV
# assay_text: FRET-based enzymatic assay
Answer each item with its documented pIC50.
One number for each entry, as −log10 of the molar value.

Here is how some compounds turned out for pIC50.
>  <compound>
CC(C)C[C@H](NC(=O)OCc1ccccc1)C(=O)N[C@@H](CC1CCNC1=O)C(O)S(=O)(=O)O (stereo partly drawn) [GC376]

>  <assay_system>
Procathepsin L (Homo sapiens, UniProt P07711)

>  <pIC50>
9.00

$$$$
>  <compound>
COc1cccc2[nH]c(C(=O)N[C@@H](CC(C)C)C(=O)N[C@@H](C[C@@H]3CCNC3=O)C(=O)CO)cc12 [WO2005113580-Ex-02]

>  <assay_system>
Procathepsin L (Homo sapiens, UniProt P07711)

>  <pIC50>
6.84

$$$$

Ask | Which pIC50 reading was recorded for the compound CC(OC(C)(C)C)[C@H](NC(=O)OCc1ccccc1)C(=O)N[C@@H](CC1CCCCC1)C(=O)N[C@H](C=O)C[C@@H]1CCNC1=O (stereo partly drawn) [jm5b01461, Compound 45] ?
Reply | 8.92
